Reference for the values: ChEMBL document CHEMBL1212738

tested on: Escherichia coli; assay: Antimicrobial activity against Escherichia coli ZJ87T expressing KPC-2 by CLSI method; type: functional
experimental.endpoint: MIC
Show the value, then the unit it is measured in.

Worked examples follow.
- molecule: "CC(C)(O/N=C(\\C(=O)N[C@@H]1C(=O)N2C(C(=O)[O-])=C(C[n+]3ccccc3)CS[C@H]12)c1csc(N)n1)C(=O)O"
  result: "32 µg/mL"
- molecule: "CN(C)c1cc(NC(=O)CNC(C)(C)C)c(O)c2c1C[C@H]1C[C@H]3[C@H](N(C)C)C(O)=C(C(N)=O)C(=O)[C@@]3(O)C(O)=C1C2=O"
  result: "0.25 µg/mL"
- molecule: "C[C@@H](O)[C@H]1C(=O)N2C(C(=O)O)=C(S[C@@H]3CN[C@H](C(=O)Nc4cccc(C(=O)O)c4)C3)[C@H](C)[C@H]12"
  result: "16 µg/mL"

Items follow; give MIC for each.
1. CO[C@@]1(NC(=O)Cc2cccs2)C(=O)N2C(C(=O)O)=C(COC(N)=O)CS[C@@H]21
2. C[C@@H](O)[C@H]1C(=O)N2C(C(=O)O)=C(SCCNC=N)C[C@H]12 [IMIPENEM ANHYDROUS]

## Output
1. 64 µg/mL
2. 8 µg/mL

----------
So I've got a bunch of molecules here, and I need their MIC values.
tested on: Enterobacter cloacae; assay: Antimicrobial activity against carbapenem-resistant Enterobacter cloacae NJ91 deficient in CTX-M-14, ompC/F by CLSI method; format: functional
Give bare numbers, in µg/mL.

Worked examples follow.
- molecule: "C[C@@H](O)[C@H]1C(=O)N2C(C(=O)O)=C(S[C@@H]3CN[C@H](C(=O)Nc4cccc(C(=O)O)c4)C3)[C@H](C)[C@H]12"
  target.of.assay: "Enterobacter cloacae"
  unit.text: "µg/mL"
  MIC: 128
- molecule: "CN(C)c1cc(NC(=O)CNC(C)(C)C)c(O)c2c1C[C@H]1C[C@H]3[C@H](N(C)C)C(O)=C(C(N)=O)C(=O)[C@@]3(O)C(O)=C1C2=O"
  target.of.assay: "Enterobacter cloacae"
  unit.text: "µg/mL"
  MIC: 0.5

## Input Identify the measured MIC of C[C@@H](O)[C@H]1C(=O)N2C(C(=O)O)=C(SCCNC=N)C[C@H]12 [IMIPENEM ANHYDROUS] for Enterobacter cloacae.
## Output 16

----------
system: Klebsiella pneumoniae; assay: Antimicrobial activity against Klebsiella pneumoniae ZJ68T expressing CTX-M-15 by CLSI method; type: functional
experimental.endpoint: MIC (µg/mL)
Numbers only, in µg/mL.

- molecule: "C[C@@H](O)[C@H]1C(=O)N2C(C(=O)O)=C(S[C@@H]3CN[C@H](C(=O)N(C)C)C3)[C@H](C)[C@H]12"
  experimental.endpoint: "MIC"
  quantitative.result: 0.032

Now for the molecule whose MIC we want.
## Input Which MIC is reported for this molecule? C[C@@H](O)[C@H]1C(=O)N2C(C(=O)O)=C(SCCNC=N)C[C@H]12 [IMIPENEM ANHYDROUS]
## Output 0.5

----------
test system: Escherichia coli; test: Antimicrobial activity against Escherichia coli PU101T expressing CMY-2 by CLSI method; assay type: functional
experimental.endpoint: MIC (µg/mL)
One number for each entry, in µg/mL.

- compound: "C[C@@H](O)[C@H]1C(=O)N2C(C(=O)O)=C(S[C@@H]3CN[C@H](C(=O)N(C)C)C3)[C@H](C)[C@H]12 [MEROPENEM]"
  experimental.endpoint: "MIC"
  quantitative.result: 0.032
- compound: "C[C@@H](O)[C@H]1C(=O)N2C(C(=O)O)=C(SCCNC=N)C[C@H]12 [IMIPENEM ANHYDROUS]"
  experimental.endpoint: "MIC"
  quantitative.result: 0.25
- compound: "C[C@@H](O)[C@H]1C(=O)N2C(C(=O)O)=C(S[C@@H]3CN[C@H](C(=O)Nc4cccc(C(=O)O)c4)C3)[C@H](C)[C@H]12"
  experimental.endpoint: "MIC"
  quantitative.result: 0.25

## Input Which MIC is reported for this compound? CN(C)c1cc(NC(=O)CNC(C)(C)C)c(O)c2c1C[C@H]1C[C@H]3[C@H](N(C)C)C(O)=C(C(N)=O)C(=O)[C@@]3(O)C(O)=C1C2=O [TIGECYCLINE]
## Output 0.25

----------
So I've got a bunch of molecules here, and I need their log10 MIC values.
system: Escherichia coli; experiment: Antimicrobial activity against carbapenem-resistant Escherichia coli ZJ86 expressing KPC-2, TEM-1 with ompC loss by CLSI method
Remember, log10 of MIC, in µg/mL.

Items follow; give log10 MIC for each.
1. C[C@@H](O)[C@H]1C(=O)N2C(C(=O)O)=C(S[C@@H]3CN[C@H](C(=O)Nc4cccc(C(=O)O)c4)C3)[C@H](C)[C@H]12
2. CO/N=C(\C(=O)N[C@@H]1C(=O)N2C(C(=O)O)=C(COC(C)=O)CS[C@H]12)c1csc(N)n1 [CEFOTAXIME]
3. NCC[C@H](O)C(=O)N[C@@H]1C[C@H](N)[C@@H](O[C@H]2O[C@H](CN)[C@@H](O)[C@H](O)[C@H]2O)[C@H](O)[C@H]1O[C@H]1O[C@H](CO)[C@@H](O)[C@H](N)[C@H]1O [AMIKACIN]
4. C[C@@H](O)[C@H]1C(=O)N2C(C(=O)O)=C(SCCNC=N)C[C@H]12 [IMIPENEM ANHYDROUS]

## Output
[1.51, 1.81, 0.00, 0.90]

----------
So I've got a bunch of compounds here, and I need their MIC values.
test system: Enterobacter cloacae; experiment: Antimicrobial activity against carbapenem-resistant Enterobacter cloacae RJ94 deficient in IMP-4, TEM-1, CTX-M-3, ompC by CLSI method; format: functional
Give bare numbers, in mg/L.

- compound: "C[C@@H](O)[C@H]1C(=O)N2C(C(=O)O)=C(S[C@@H]3CN[C@H](C(=O)N(C)C)C3)[C@H](C)[C@H]12"
  MIC [mg/L]: 8
- compound: "C[C@@H](O)[C@H]1C(=O)N2C(C(=O)O)=C(SCCNC=N)C[C@H]12 [IMIPENEM ANHYDROUS]"
  MIC [mg/L]: 8

Now for the compound whose MIC we want.
## Input Which MIC is reported for this compound? CN(C)c1cc(NC(=O)CNC(C)(C)C)c(O)c2c1C[C@H]1C[C@H]3[C@H](N(C)C)C(O)=C(C(N)=O)C(=O)[C@@]3(O)C(O)=C1C2=O
## Output 1

----------
So I've got a bunch of molecules here, and I need their MIC values.
system: Klebsiella pneumoniae; assay: Antimicrobial activity against carbapenem-resistant Klebsiella pneumoniae ZJ71 deficient in KPC-2, TEM-1, SHV-11, CTX-M-14, ompK35 by CLSI method; type: functional
Answers are plain numbers, in µg/mL.

Worked examples follow.
- molecule: "CO/N=C(\\C(=O)N[C@@H]1C(=O)N2C(C(=O)O)=C(COC(C)=O)CS[C@H]12)c1csc(N)n1"
  experimental.endpoint: "MIC"
  quantitative.result: 256
- molecule: "CO[C@@]1(NC(=O)Cc2cccs2)C(=O)N2C(C(=O)O)=C(COC(N)=O)CS[C@@H]21"
  experimental.endpoint: "MIC"
  quantitative.result: 16
- molecule: "C[C@@H](O)[C@H]1C(=O)N2C(C(=O)O)=C(SCCNC=N)C[C@H]12 [IMIPENEM ANHYDROUS]"
  experimental.endpoint: "MIC"
  quantitative.result: 16
- molecule: "CC(C)(O/N=C(\\C(=O)N[C@@H]1C(=O)N2C(C(=O)[O-])=C(C[n+]3ccccc3)CS[C@H]12)c1csc(N)n1)C(=O)O"
  experimental.endpoint: "MIC"
  quantitative.result: 32
- molecule: "C[C@@H](O)[C@H]1C(=O)N2C(C(=O)O)=C(S[C@@H]3CN[C@H](C(=O)Nc4cccc(C(=O)O)c4)C3)[C@H](C)[C@H]12"
  experimental.endpoint: "MIC"
  quantitative.result: 16

Now for the molecule whose MIC we want.
## Input Which MIC is reported for this molecule? CN(C)c1cc(NC(=O)CNC(C)(C)C)c(O)c2c1C[C@H]1C[C@H]3[C@H](N(C)C)C(O)=C(C(N)=O)C(=O)[C@@]3(O)C(O)=C1C2=O
## Output 0.13

----------
So I've got a bunch of molecules here, and I need their log10 of MIC values.
tested on: Escherichia coli; experiment: Antimicrobial activity against Escherichia coli C600 by CLSI method; assay type: functional
Remember, log10 of MIC, in µg/mL.

Worked examples follow.
- smiles.representation: "CO/N=C(\\C(=O)N[C@@H]1C(=O)N2C(C(=O)O)=C(COC(C)=O)CS[C@H]12)c1csc(N)n1"
  log10 of MIC: -0.89
- smiles.representation: "CN(C)c1cc(NC(=O)CNC(C)(C)C)c(O)c2c1C[C@H]1C[C@H]3[C@H](N(C)C)C(O)=C(C(N)=O)C(=O)[C@@]3(O)C(O)=C1C2=O"
  log10 of MIC: -1.22
- smiles.representation: "C[C@@H](O)[C@H]1C(=O)N2C(C(=O)O)=C(S[C@@H]3CN[C@H](C(=O)N(C)C)C3)[C@H](C)[C@H]12"
  log10 of MIC: -1.52
- smiles.representation: "NCC[C@H](O)C(=O)N[C@@H]1C[C@H](N)[C@@H](O[C@H]2O[C@H](CN)[C@@H](O)[C@H](O)[C@H]2O)[C@H](O)[C@H]1O[C@H]1O[C@H](CO)[C@@H](O)[C@H](N)[C@H]1O"
  log10 of MIC: 0.00
- smiles.representation: "C[C@@H](O)[C@H]1C(=O)N2C(C(=O)O)=C(S[C@@H]3CN[C@H](C(=O)Nc4cccc(C(=O)O)c4)C3)[C@H](C)[C@H]12"
  log10 of MIC: -2.10

Items follow; give log10 of MIC for each.
1. CC(C)(O/N=C(\C(=O)N[C@@H]1C(=O)N2C(C(=O)[O-])=C(C[n+]3ccccc3)CS[C@H]12)c1csc(N)n1)C(=O)O
2. CO[C@@]1(NC(=O)Cc2cccs2)C(=O)N2C(C(=O)O)=C(COC(N)=O)CS[C@@H]21

## Output
1: -0.30; 2: 1.20
